SYSTEM UNDER TEST: CRF1 receptors (Homo sapiens, UniProt P34998)
Construct: endogenous in cells; host or cells: IMR-32 cells, transformed with 2.5 µM 5'-bromo-2'-deoxyuridine for 10 days; membrane preparation
MEASUREMENT NOTES: CRF1 receptor radioligand binding assay ([125I]-oCRF competition, IMR-32 cell membranes)
TEST SETTINGS: IMR-32 cell membranes, [125I]-oCRF 100 pM; read-out: Ki (CRF-1R)
pKi: −log10 of the molar value.
READOUT KIND: pKi

1) CCCN(CCc1ccccc1)Cc1c(C(F)(F)F)nc2n(-c3c(C)cc(C)cc3C)c3ncccc3n12 [Example 217]; > 7.00
2) CCCCN(CC)Cc1c(C(F)(F)F)nc2n(-c3c(C)cc(C)cc3C)c3ccccc3n12 [Example 170]; > 6.00
3) Cc1cc(C)c(-n2c(Cl)cn3c(CN(CC4CCC4)CC(F)(F)F)c(C(F)(F)F)nc23)c(C)c1 [Example 320]; > 8.00
4) Cc1cc(C)c(N2CCCn3c2nc(C(F)(F)F)c3CN(Cc2ccccc2)CC(F)(F)F)c(C)c1 [Example 85]; > 5.00
5) FC(F)(F)CN(Cc1c(C(F)(F)F)nc2n(-c3ccc(Cl)cc3Cl)c3ccccc3n12)CC1CCC1 [Example 185]; > 5.00
6) Cc1cc(C)c(N2CCCn3c2nc(C(F)(F)F)c3CN2CCOCC2)c(Cl)c1 [Example 97]; > 6.00
7) Cc1cc(C)c(-n2c3ncccc3n3c(CN(CC4CCC4)CC(F)(F)F)c(C(F)(F)F)nc23)c(C)c1 [Example 216]; > 7.00
8) CCN(CCc1ccccc1)Cc1c(C(F)(F)F)nc2n(-c3c(C)cc(C)cc3C)c3ncccc3n12 [Example 218]; > 6.00
9) CCCN(CCC(F)(F)F)C(=O)c1c(CC)nc2n1CCN2c1c(C)cc(C)cc1Br [Example 45]; > 6.00
10) Cc1cc(C)c(-n2c3ccccc3n3c(CN(CC4CC4)CC4CC4)c(C(F)(F)F)nc23)c(C)c1 [Example 151]; > 7.00

[in] What value of measured pKi is listed for CCCN(Cc1c(C(F)(F)F)nc2n1CCCN2c1c(C)cc(C)cc1C)CC(F)(F)F [Example 79] ?
[out] > 7.00

[in] Okay, and Cc1cc(C)c(-n2c(Cl)cn3c(CN4CCSCC4)c(C(F)(F)F)nc23)c(C)c1 [Example 306] ?
[out] > 6.00

* * *

Parameter: Ki. Scope: all listed entries.
SYSTEM UNDER TEST: CRF1 receptors (Homo sapiens, UniProt P34998)
Construct: endogenous in cells; host or cells: IMR-32 cells, transformed with 2.5 µM 5'-bromo-2'-deoxyuridine for 10 days; membrane preparation
Sequence (P34998 24-415): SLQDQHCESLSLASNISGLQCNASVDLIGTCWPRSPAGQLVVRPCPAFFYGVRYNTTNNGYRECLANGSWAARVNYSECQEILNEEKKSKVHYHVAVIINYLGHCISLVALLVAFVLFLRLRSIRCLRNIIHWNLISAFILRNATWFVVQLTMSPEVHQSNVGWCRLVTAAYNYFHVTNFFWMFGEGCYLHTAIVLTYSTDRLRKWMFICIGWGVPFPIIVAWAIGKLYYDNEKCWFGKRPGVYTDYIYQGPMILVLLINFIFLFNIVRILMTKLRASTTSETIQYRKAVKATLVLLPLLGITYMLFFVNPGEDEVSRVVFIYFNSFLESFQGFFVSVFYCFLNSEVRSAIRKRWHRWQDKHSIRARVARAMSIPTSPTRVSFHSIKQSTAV
MEASUREMENT NOTES: CRF1 receptor radioligand binding assay ([125I]-oCRF competition, IMR-32 cell membranes)
TEST SETTINGS: IMR-32 cell membranes, [125I]-oCRF 100 pM; read-out: Ki (CRF-1R)

1. CCCN(CCC1CC1)Cc1c(C(F)(F)F)nc2n1CCCN2c1c(C)cc(C)cc1C; < 1 µM
2. C=CCN(CCC)Cc1c(CC)nc2n(-c3c(C)cc(C)cc3C)c3ncccc3n12; < 0.1 µM
3. CCCN(Cc1c(C)nc2n(-c3c(C)cc(C)cc3C)c(Cl)cn12)CC1CC1; < 0.1 µM
4. Cc1cc(C)c(-n2c(Cl)cn3c(CN(CC4CC4)CC(F)(F)F)c(C(F)(F)F)nc23)c(C)c1; < 0.01 µM
5. CCCN(CCC)Cc1c(C(F)(F)F)nc2n1CCCN2c1c(C)cc(C)cc1Cl; < 1 µM
6. Cc1cc(C)c(-n2c(Cl)cn3c(CN(CC4CC4)CC(F)(F)C(F)(F)F)c(C(F)(F)F)nc23)c(C)c1; < 0.01 µM

[in] Record lookup: for CRF1 receptors (Homo sapiens, UniProt P34998), what Ki belongs to CCCN(Cc1ccccc1)Cc1c(C(F)(F)F)nc2n1CCCN2c1c(C)cc(C)cc1Cl ?
[out] < 1 µM

[in] // same read-out, input: CCCN(CCC(F)(F)F)Cc1c(C(F)(F)F)nc2n(-c3c(C)cc(C)cc3C)c3ncccc3n12
[out] < 1 µM

* * *

// Ki lookup, one value per entry
SYSTEM UNDER TEST: CRF1 receptors (Homo sapiens, UniProt P34998)
Construct: endogenous in cells; host or cells: IMR-32 cells, transformed with 2.5 µM 5'-bromo-2'-deoxyuridine for 10 days; membrane preparation
MEASUREMENT NOTES: CRF1 receptor radioligand binding assay ([125I]-oCRF competition, IMR-32 cell membranes)
TEST SETTINGS: IMR-32 cell membranes, [125I]-oCRF 100 pM; read-out: Ki (CRF-1R)

Please review the following examples before continuing.
1) CCN(Cc1c(C(F)(F)F)nc2n(-c3c(C)cc(C)cc3C)c3ccccc3n12)CC1CC1; < 100 nM
2) Cc1cc(C)c(-n2c3ncccc3n3c(CN(CCc4ccccc4)CC(F)(F)F)c(C(F)(F)F)nc23)c(C)c1; < 10000 nM
3) CC(C)c1ccc(-n2c3ccccc3n3c(CN(CCC(F)(F)F)CC4CC4)c(C(F)(F)F)nc23)c(Br)c1; < 1000 nM

[in] Bench note: what Ki did Cc1cc(C)c(N2CCCn3c2nc(C(F)(F)F)c3CN(CC2CCC2)CC(F)(F)F)c(C)c1 show?
[out] < 100 nM

* * *

SYSTEM UNDER TEST: CRF1 receptors (Homo sapiens, UniProt P34998)
Construct: endogenous in cells; host or cells: IMR-32 cells, transformed with 2.5 µM 5'-bromo-2'-deoxyuridine for 10 days; membrane preparation
MEASUREMENT NOTES: CRF1 receptor radioligand binding assay ([125I]-oCRF competition, IMR-32 cell membranes)
TEST SETTINGS: IMR-32 cell membranes, [125I]-oCRF 100 pM; read-out: Ki (CRF-1R)
Quick list: Ki per entry.

Worked cases, answers included:
1. CCCN(CC(F)(F)F)C(=O)c1c(CC)nc2n1CCN2c1c(C)cc(C)cc1C; < 0.1 µM
2. CCc1nc2n(c1C(=O)N(CC)CC1CC1)CCN2c1c(C)cc(C)cc1C; < 0.1 µM
3. Cc1cc(C)c(-n2c3ccccc3n3c(CN(C)Cc4ccccc4)c(C(F)(F)F)nc23)c(C)c1; < 1 µM

[in] What value of Ki has been recorded for this entry: CCCN(CC1CC1)C(=O)c1c(C)nc2n1CC(=O)N2c1c(C)cc(C)cc1C
[out] < 1 µM

[in] What about CCCN(Cc1c(C(F)(F)F)nc2n(-c3c(C)cc(C)cc3C)c3ccccc3n12)CC(F)(F)C(F)(F)F ?
[out] < 0.1 µM

* * *

SYSTEM UNDER TEST: CRF1 receptors (Homo sapiens, UniProt P34998)
Construct: endogenous in cells; host or cells: IMR-32 cells, transformed with 2.5 µM 5'-bromo-2'-deoxyuridine for 10 days; membrane preparation
MEASUREMENT NOTES: CRF1 receptor radioligand binding assay ([125I]-oCRF competition, IMR-32 cell membranes)
TEST SETTINGS: IMR-32 cell membranes, [125I]-oCRF 100 pM; read-out: Ki (CRF-1R)
pKi: −log10 of the molar value.
READOUT KIND: pKi

1) CCCN(Cc1ccc(F)cc1)Cc1c(C(F)(F)F)nc2n1CCCN2c1c(C)cc(C)cc1C; > 6.00
2) CCc1nc2n(c1C(=O)N(CC1CC1)CC(F)(F)F)CCN2c1ccc(C(C)C)cc1Br; > 6.00

// switching to the query compound
[in] Recorded pKi for CCCN(Cc1c(C(F)(F)F)nc2n(-c3ccc(Cl)cc3Cl)c3ccccc3n12)CC1CC1 with CRF1 receptors (Homo sapiens, UniProt P34998), please?
[out] > 6.00

* * *

SYSTEM UNDER TEST: CRF1 receptors (Homo sapiens, UniProt P34998)
Construct: endogenous in cells; host or cells: IMR-32 cells, transformed with 2.5 µM 5'-bromo-2'-deoxyuridine for 10 days; membrane preparation
MEASUREMENT NOTES: CRF1 receptor radioligand binding assay ([125I]-oCRF competition, IMR-32 cell membranes)
TEST SETTINGS: IMR-32 cell membranes, [125I]-oCRF 100 pM; read-out: Ki (CRF-1R)
pKi: −log10 of the molar value.
READOUT KIND: pKi

Below are worked cases with known answers.
1) Cc1cc(C)c(N2CCCn3c2nc(C(F)(F)F)c3CN(CCc2ccccc2)CCC(F)(F)F)c(C)c1 [Example 81]; > 6.00
2) CCCCN(CC)Cc1c(C(F)(F)F)nc2n(-c3c(C)cc(C)cc3C)c(Cl)cn12 [Example 346]; > 7.00
3) CCc1nc2n(c1C(=O)N(CC1CC1)CC1CC1)CCN2c1c(C)cc(C)cc1C [Example 8]; > 7.00
4) CCc1nc2n(-c3c(C)cc(C)cc3C)c3ncccc3n2c1CN(CC)CC1CC1 [Example 250]; > 6.00
5) CCc1nc2n(c1C(=O)N(CCC(F)(F)F)CC1CC1)CCN2c1ccc(C(C)C)cc1Br [Example 39]; > 5.00
6) Cc1cc(C)c(-n2c3ncccc3n3c(CN(CCC4CC4)CC(F)(F)F)c(C(F)(F)F)nc23)c(C)c1 [Example 232]; > 6.00
7) CCCN(Cc1c(C(F)(F)F)nc2n(-c3ccc(C(C)C)cc3Br)c3ccccc3n12)CC1CCC1 [Example 195]; > 6.00
8) CCCN(CCC)Cc1c(C(F)(F)F)nc2n(-c3ccc(C(C)C)cc3Br)c3ccccc3n12 [Example 206]; > 5.00
9) C=CCN(CCC)Cc1c(C(F)(F)F)nc2n(-c3c(C)cc(C)cc3C)c(Cl)cn12 [Example 339]; > 8.00
10) CCCN(Cc1c(C(F)(F)F)nc2n(-c3c(C)cc(C)cc3C)c(Cl)cn12)CC(F)(F)F [Example 322]; > 8.00

[in] What does the record list as pKi for CCCN(CCOC)Cc1c(C(F)(F)F)nc2n(-c3c(C)cc(C)cc3C)c(Cl)cn12 [Example 342] ?
[out] > 7.00

[in] What about this compound? Cc1cc(C)c(-n2c(Cl)cn3c(CN4CC=CCC4)c(C(F)(F)F)nc23)c(C)c1 [Example 305]
[out] > 6.00
